measured.target: Transcriptional enhancer factor TEF-3 (Homo sapiens)
assay.remarks: Inhibition of TEAD4 (unknown origin) transfected in human HEK293 cells co-transfected with renilla plasmid assessed as maximum inhibition of transcriptional activity at 0.01 to 100 uM incubated for 24 hrs by dual Glo-luciferase reporter assay relative to control
Assay type: cell-based
condition.details: dose 0.01-100 µM
Field 'label' (enum: 1 (yes) / 0 (no)). Set to 1 (yes) when Imax is strictly under 50%; else 0 (no).

Inquiry: I wonder whether N#CN1Cc2cccc(Nc3ccccc3C(F)(F)F)c2C1 has Imax below 50%. Can you tell?
Reply text: 0 (no)

* * *

measured.target: UniProt Q15562
assay.remarks: Displacement of FAM- labeled YAP1 peptide (60 to 99 residues) from human TEAD2 (217 to 447 residues) expressed in Escherichia coli BL21 (DE3) cells assessed as maximum inhibition at 0.2 to 100 uM incubated for 24 hrs by fluorescence polarization-based competitive binding assay relative to control
condition.details: dose 0.2-100 µM
Below: a set of entries, each annotated with reported Imax.
Kindly provide the numeric value in % only, without the unit symbol.

Worked cases, answers included:
compound	readout.units	Imax
N#CN1Cc2cccc(Nc3cccc(C(F)(F)F)c3)c2C1	%	34
N#CN1Cc2cccc(Nc3ccc(C(F)(F)F)cc3)c2C1	%	33
N#CN1CC2CCCC(Nc3cccc(C(F)(F)F)c3)C2C1 (stereo not drawn)	%	45

Inquiry: Quickly give me recorded Imax for COc1ccc2c(c1Nc1cccc(C(F)(F)F)c1)CN(C#N)C2
Reply text: 42

Inquiry: Quickly give me recorded Imax for N#CN1CC2CCCC(Nc3ccc(C(F)(F)F)cc3)C2C1 (stereo not drawn)
Reply text: 39

Inquiry: Quickly give me recorded Imax for N#CN1Cc2cccc(Nc3ccccc3C(F)(F)F)c2C1
Reply text: 40

Inquiry: Quickly give me recorded Imax for N#CN1CC2CCCC(Nc3ccccc3C(F)(F)F)C2C1 (stereo not drawn)
Reply text: 20

Inquiry: Quickly give me recorded Imax for N#CN1Cc2ccc(F)c(Nc3cccc(C(F)(F)F)c3)c2C1
Reply text: 37

* * *

Below: a set of entries, each annotated with reported IC50.
measured.target: Transcriptional enhancer factor TEF-4 (Homo sapiens, UniProt Q15562)
Sequence (Q15562 whole entry, the tested form may be a part): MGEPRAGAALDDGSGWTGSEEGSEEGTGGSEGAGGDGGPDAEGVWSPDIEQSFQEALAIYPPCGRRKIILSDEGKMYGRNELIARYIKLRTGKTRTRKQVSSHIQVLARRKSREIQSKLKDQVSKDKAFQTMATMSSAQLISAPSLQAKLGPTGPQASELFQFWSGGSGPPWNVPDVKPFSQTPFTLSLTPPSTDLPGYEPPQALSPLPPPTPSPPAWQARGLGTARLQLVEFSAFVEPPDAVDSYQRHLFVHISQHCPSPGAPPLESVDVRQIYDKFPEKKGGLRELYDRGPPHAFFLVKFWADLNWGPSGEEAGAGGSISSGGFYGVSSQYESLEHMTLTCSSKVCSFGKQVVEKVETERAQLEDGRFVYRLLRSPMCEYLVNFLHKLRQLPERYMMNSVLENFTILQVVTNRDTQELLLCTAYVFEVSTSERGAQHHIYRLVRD
assay.remarks: Displacement of FAM- labeled YAP1 peptide (60 to 99 residues) from human TEAD2 (217 to 447 residues) expressed in Escherichia coli BL21 (DE3) cells incubated for 24 hrs by fluorescence polarization-based competitive binding assay
Kindly provide the numeric value in µM only, without the unit symbol.

compound	IC50 (µM)
N#CN1CC2CCCC(Nc3ccc(C(F)(F)F)cc3)C2C1 (stereo not drawn)	16.1

Inquiry: Quickly give me recorded IC50 for N#CN1CC2CCCC(Nc3cccc(C(F)(F)F)c3)C2C1 (stereo not drawn)
Reply text: 27.6

Inquiry: Quickly give me recorded IC50 for COc1ccc2c(c1Nc1cccc(C(F)(F)F)c1)CN(C#N)C2
Reply text: 1.7

Inquiry: Quickly give me recorded IC50 for N#CN1Cc2cccc(Nc3cccc(C(F)(F)F)c3)c2C1
Reply text: 1.2

Inquiry: Quickly give me recorded IC50 for N#CN1Cc2cccc(Nc3ccc(C(F)(F)F)cc3)c2C1
Reply text: 0.8

Inquiry: Quickly give me recorded IC50 for N#CN1Cc2ccc(F)c(Nc3cccc(C(F)(F)F)c3)c2C1
Reply text: 2.4

Inquiry: Quickly give me recorded IC50 for N#CN1CC2CCCC(Nc3ccccc3C(F)(F)F)C2C1 (stereo not drawn)
Reply text: 7.5

Inquiry: Quickly give me recorded IC50 for N#CN1Cc2cccc(Nc3ccccc3C(F)(F)F)c2C1
Reply text: 2.1

* * *

Below: a set of entries, each annotated with reported IC50.
measured.target: Transcriptional enhancer factor TEF-3 (Homo sapiens, UniProt Q15561)
Sequence (Q15561 whole entry, the tested form may be a part): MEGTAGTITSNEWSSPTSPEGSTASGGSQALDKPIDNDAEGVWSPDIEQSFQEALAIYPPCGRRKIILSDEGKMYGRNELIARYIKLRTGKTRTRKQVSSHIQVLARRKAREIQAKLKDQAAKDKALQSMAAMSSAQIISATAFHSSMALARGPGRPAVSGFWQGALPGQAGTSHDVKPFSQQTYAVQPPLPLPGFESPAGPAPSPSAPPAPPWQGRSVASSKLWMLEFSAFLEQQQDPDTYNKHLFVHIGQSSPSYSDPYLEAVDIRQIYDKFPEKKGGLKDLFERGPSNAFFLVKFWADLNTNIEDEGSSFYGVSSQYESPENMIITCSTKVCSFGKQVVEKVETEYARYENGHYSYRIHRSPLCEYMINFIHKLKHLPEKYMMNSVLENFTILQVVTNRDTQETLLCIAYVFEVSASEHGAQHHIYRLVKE
assay.remarks: Inhibition of TEAD4 (unknown origin) transfected in human HEK293 cells co-transfected with renilla plasmid assessed as inhibition of transcriptional activity incubated for 24 hrs by dual Glo-luciferase reporter assay
Format: cell-based
condition.details: read-out: IC50
Don't forget the unit after the value.

Worked cases, answers included:
compound	measured.target	IC50
N#CN1Cc2cccc(Nc3ccccc3C(F)(F)F)c2C1	Transcriptional enhancer factor TEF-3 (Homo sapiens, UniProt Q15561)	10500 nM
N#CN1Cc2ccc(F)c(Nc3cccc(C(F)(F)F)c3)c2C1	Transcriptional enhancer factor TEF-3 (Homo sapiens, UniProt Q15561)	700 nM
COc1ccc2c(c1Nc1cccc(C(F)(F)F)c1)CN(C#N)C2	Transcriptional enhancer factor TEF-3 (Homo sapiens, UniProt Q15561)	300 nM
N#CN1CC2CCCC(Nc3cccc(C(F)(F)F)c3)C2C1 (stereo unspecified)	Transcriptional enhancer factor TEF-3 (Homo sapiens, UniProt Q15561)	400 nM
N#CN1Cc2cccc(Nc3ccc(C(F)(F)F)cc3)c2C1	Transcriptional enhancer factor TEF-3 (Homo sapiens, UniProt Q15561)	2100 nM

As a next step, examine the compound that follows.
Inquiry: Quickly give me recorded IC50 for N#CN1Cc2cccc(Nc3cccc(C(F)(F)F)c3)c2C1
Reply text: 5000 nM

* * *

Below: a set of entries, each annotated with reported pIC50.
measured.target: Transcriptional enhancer factor TEF-5 (Homo sapiens)
Sequence (Q99594 whole entry): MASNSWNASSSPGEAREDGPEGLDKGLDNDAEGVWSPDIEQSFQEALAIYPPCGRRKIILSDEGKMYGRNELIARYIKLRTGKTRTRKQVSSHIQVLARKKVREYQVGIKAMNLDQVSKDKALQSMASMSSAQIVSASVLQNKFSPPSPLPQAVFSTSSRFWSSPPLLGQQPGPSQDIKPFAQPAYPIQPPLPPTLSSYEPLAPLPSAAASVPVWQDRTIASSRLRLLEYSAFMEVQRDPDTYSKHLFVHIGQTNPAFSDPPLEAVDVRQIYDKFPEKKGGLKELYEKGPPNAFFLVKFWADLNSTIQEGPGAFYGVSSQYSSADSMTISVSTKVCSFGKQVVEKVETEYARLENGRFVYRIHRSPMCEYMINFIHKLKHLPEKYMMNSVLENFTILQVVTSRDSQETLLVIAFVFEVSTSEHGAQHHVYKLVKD
assay.remarks: Inhibition of TEAD3 (unknown origin) transfected in human HEK293 cells co-transfected with renilla plasmid assessed as inhibition of transcriptional activity incubated for 24 hrs by dual Glo-luciferase reporter assay
Assay type: cell-based
Field pIC50 (float): negative decimal logarithm of the concentration in molar.

compound	readout	measured.number
N#CN1CC2CCCC(Nc3cccc(C(F)(F)F)c3)C2C1 (configuration not stated)	pIC50	5.92

As a next step, examine the compound that follows.
Inquiry: Quickly give me recorded pIC50 for N#CN1Cc2cccc(Nc3cccc(C(F)(F)F)c3)c2C1
Reply text: 5.66

* * *

measured.target: Transcriptional enhancer factor TEF-1 (Homo sapiens)
Sequence (P28347 whole entry, the tested form may be a part): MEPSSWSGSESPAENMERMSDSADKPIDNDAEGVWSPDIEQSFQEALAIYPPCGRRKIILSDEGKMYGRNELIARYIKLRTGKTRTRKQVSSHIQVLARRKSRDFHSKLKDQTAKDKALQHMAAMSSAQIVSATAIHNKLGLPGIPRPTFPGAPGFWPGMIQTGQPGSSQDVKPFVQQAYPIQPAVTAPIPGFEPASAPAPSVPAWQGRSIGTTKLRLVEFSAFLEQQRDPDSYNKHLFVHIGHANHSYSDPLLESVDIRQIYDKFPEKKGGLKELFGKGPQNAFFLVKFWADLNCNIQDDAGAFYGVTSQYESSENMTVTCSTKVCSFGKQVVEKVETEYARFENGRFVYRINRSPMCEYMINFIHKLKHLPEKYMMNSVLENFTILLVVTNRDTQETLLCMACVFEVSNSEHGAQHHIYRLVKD
assay.remarks: Displacement of FAM- labeled YAP1 peptide (60 to 99 residues) from human TEAD1 (209 to 426 residues) expressed in Escherichia coli BL21 (DE3) cells incubated for 24 hrs by fluorescence polarization-based competitive binding assay
condition.details: read-out: IC50
Below: a set of entries, each annotated with reported pIC50.
Field pIC50 (float): negative decimal logarithm of the concentration in molar.

molecule	measured.target	measured.number
N#CN1Cc2cccc(Nc3cccc(C(F)(F)F)c3)c2C1	Transcriptional enhancer factor TEF-1 (Homo sapiens)	6.05
N#CN1CC2CCCC(Nc3ccc(C(F)(F)F)cc3)C2C1 (configuration not stated)	Transcriptional enhancer factor TEF-1 (Homo sapiens)	5.82
N#CN1CC2CCCC(Nc3cccc(C(F)(F)F)c3)C2C1 (configuration not stated)	Transcriptional enhancer factor TEF-1 (Homo sapiens)	5.80
COc1ccc2c(c1Nc1cccc(C(F)(F)F)c1)CN(C#N)C2	Transcriptional enhancer factor TEF-1 (Homo sapiens)	6.52
N#CN1Cc2cccc(Nc3ccc(C(F)(F)F)cc3)c2C1	Transcriptional enhancer factor TEF-1 (Homo sapiens)	6.70
N#CN1Cc2cccc(Nc3ccccc3C(F)(F)F)c2C1	Transcriptional enhancer factor TEF-1 (Homo sapiens)	5.89

As a next step, examine the molecule that follows.
Inquiry: Quickly give me recorded pIC50 for N#CN1Cc2ccc(F)c(Nc3cccc(C(F)(F)F)c3)c2C1
Reply text: 6.70

* * *

measured.target: Transcriptional enhancer factor TEF-3 (Homo sapiens)
assay.remarks: Displacement of FAM- labeled YAP1 peptide (60 to 99 residues) from human TEAD4 (217 to 434 residues) expressed in Escherichia coli BL21 (DE3) cells incubated for 24 hrs by fluorescence polarization-based competitive binding assay
condition.details: read-out: IC50
readout: pIC50
Field pIC50 (float): negative decimal logarithm of the concentration in molar.

Worked cases, answers included:
compound	measured.number
N#CN1Cc2ccc(F)c(Nc3cccc(C(F)(F)F)c3)c2C1	6.22
N#CN1Cc2cccc(Nc3ccccc3C(F)(F)F)c2C1	5.27
N#CN1Cc2cccc(Nc3cccc(C(F)(F)F)c3)c2C1	5.96
N#CN1CC2CCCC(Nc3ccc(C(F)(F)F)cc3)C2C1 (stereo unspecified)	4.70
N#CN1CC2CCCC(Nc3cccc(C(F)(F)F)c3)C2C1 (stereo unspecified)	4.29

As a next step, examine the compound that follows.
Inquiry: Quickly give me recorded pIC50 for COc1ccc2c(c1Nc1cccc(C(F)(F)F)c1)CN(C#N)C2
Reply text: 6.70

* * *

System: MDA-MB-468
assay.remarks: Inhibition of TEAD in human MDA-MB-468 cells assessed as maximal inhibition of CTGF transcriptional level at 0.01 to 100 uM incubated for 24 hrs by qRT-PCR assay relative to control
Type: cell-based
condition.details: dose 0.01-100 µM
Below: a set of entries, each annotated with reported Imax.

Worked cases, answers included:
molecule	measured.target	Imax
N#CN1Cc2cccc(Nc3ccccc3C(F)(F)F)c2C1	MDA-MB-468	36.7%
N#CN1Cc2ccc(F)c(Nc3cccc(C(F)(F)F)c3)c2C1	MDA-MB-468	50.3%
N#CN1Cc2cccc(Nc3ccc(C(F)(F)F)cc3)c2C1	MDA-MB-468	59.6%
COc1ccc2c(c1Nc1cccc(C(F)(F)F)c1)CN(C#N)C2	MDA-MB-468	45.3%
N#CN1CC2CCCC(Nc3cccc(C(F)(F)F)c3)C2C1 (stereo not drawn)	MDA-MB-468	28.6%

Inquiry: Quickly give me recorded Imax for N#CN1CC2CCCC(Nc3ccccc3C(F)(F)F)C2C1 (stereo not drawn)
Reply text: 41.1%

Inquiry: Quickly give me recorded Imax for N#CN1Cc2cccc(Nc3cccc(C(F)(F)F)c3)c2C1
Reply text: 65.7%
